# TESTED_TARGET: T1, human TNFR2 on the surface of CHO-TNFR2 cells (human, UniProt P20333 23-461)
# T1 construct: whole, on cells
# T1 sequence (looked up): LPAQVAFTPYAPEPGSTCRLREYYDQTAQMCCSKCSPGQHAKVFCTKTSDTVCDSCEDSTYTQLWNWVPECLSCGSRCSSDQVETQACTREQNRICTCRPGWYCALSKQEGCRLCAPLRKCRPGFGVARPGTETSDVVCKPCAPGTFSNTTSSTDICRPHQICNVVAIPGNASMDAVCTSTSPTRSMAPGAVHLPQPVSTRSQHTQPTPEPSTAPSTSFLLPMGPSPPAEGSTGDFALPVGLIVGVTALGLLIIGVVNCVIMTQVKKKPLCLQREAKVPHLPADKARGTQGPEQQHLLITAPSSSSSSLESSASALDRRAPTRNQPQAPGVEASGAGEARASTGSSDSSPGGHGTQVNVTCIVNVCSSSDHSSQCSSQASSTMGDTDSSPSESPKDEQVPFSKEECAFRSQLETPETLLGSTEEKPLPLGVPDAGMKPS
# ASSAY_COMMENT: competition flow cytometry on CHO-TNFR2 cells, competitor TNFα-biotin; IC50 against 219-WT
OBSERVATION_TYPE: % Relative activity (WT antibody/test antibody) (%)
Give just the number in %; leave the unit off.

Prompt: Find the recorded % Relative activity (WT antibody/test antibody) belonging to 219-Hu5 (antibody, V domains shown, also called VH7 + VL5) VH: QVQLVQSGAEVKKPGSSVKVSCKASGYSFTNYWMNWVRQAPGQGLEWMGMIHPSDTETRLNQNFKDRVTITVDKSTSTAYMELSSLRSEDTAVYYCARGEGLGAARSVSMDYWGQGTLVTVSS VL: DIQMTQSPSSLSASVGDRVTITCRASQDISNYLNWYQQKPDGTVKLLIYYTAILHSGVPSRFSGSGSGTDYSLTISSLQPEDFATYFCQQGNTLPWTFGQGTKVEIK and report it.
Completion: 138
